- Tested on: epimastigotes of Trypanosoma cruzi (Y strain)
- MEASUREMENT PROTOCOL: alamarBlue activity against epimastigotes of T. cruzi
- Assay type: cell-based
- RUN CONDITIONS: Trypanosoma cruzi; 72 h of incubation; mean with standard deviation
pIC50: −log10 of the molar value.
RESULT TYPE: pIC50

# input Tell me pIC50 reported for C=C1C(=O)O[C@@H]2/C=C(\C)[C@H](O)CC/C(C)=C/[C@H](OC(C)=O)[C@@H]12 [Tatridin A acetate (5), tatridin A acetate]
# output < 4.09

# input Tell me pIC50 reported for C=C1C[C@@H]2OC(=O)C(=C)[C@H]2[C@H](O)/C=C(\C)CCC1=O
# output < 4.16

# input Tell me pIC50 reported for C=C1C(=O)O[C@@H]2[C@@H]3[C@@](C)(CC[C@@H]12)[C@H](O)CC[C@]3(C)O [4b-Hydroxyarbusculin A (11), 4β-hydroxyarbusculin A]
# output < 3.70

# input Tell me pIC50 reported for C=C1CC[C@@H](C(C)C)/C=C/[C@@](C)(O)CC[C@H]1O [Nephthediol (10), (−) nephthediol]
# output < 3.98

# input Tell me pIC50 reported for C=C1C(=O)O[C@H]2CC(=C)[C@H]3CC[C@@](C)(O)[C@@H](O3)[C@@H](O)[C@H]12
# output < 4.05

# input Tell me pIC50 reported for C=C1C(=O)O[C@@H]2/C=C(\C)[C@H](O)CC/C(C)=C/[C@H](O)[C@@H]12
# output < 4.02

# input Tell me pIC50 reported for C=C1C(=O)O[C@H]2CC(=C)[C@@H](O)CC/C(C)=C/[C@@H](O)[C@H]12
# output < 4.02
